tgt: the molecule itself
protocol: FRET or BRET; LRET between Tb3+ chelate (donor) and Bodipy FL (acceptor) on L51C of the two Rad50^NBD in MR^NBD complexes with Mre11; donor-sensitized acceptor lifetimes, three-exponential fit; no ATP (apo); 0.5 uM wild type, L828A, D829A or 2.0 uM L828F, D829N complexes; 50 mM Tris, 200 mM NaCl, 5 mM MgCl2, pH 7.5, 50 °C; percent of LRET-visible molecules only

[
  {
    "protein": "P. furiosus Rad50 nucleotide binding domain L51C/L828F, LRET-labelled (domain or fragment, Pyrococcus furiosus, Tb3+ chelate DTPA-cs124-EMPH (donor) or Bodipy FL maleimide (acceptor) on the cysteine L51C, Rad50, Pyrococcus furiosus, amino acids 1-195; linker that replaces most of the coiled-coil and the Zn-hook; Rad50, Pyrococcus furiosus, amino acids 709-882; Measured within the MR^NBD complex with Mre11; also called L828F MR^NBD (LRET); source: labelled and passed over Superdex 200 Increase) MKLERVTVKNFRSHSDTVVEFKEGINLIIGQNGSGKSSLLDAILVGLYWPCRIKDIKKDEFTKVGARDTYIDLIFEKDGTKYRITRRFLKGYSSGEIHAMKRLVGNEWKHVTEPSSKAISAFMEKLIPYNIFLNAIYIRQGQIDAILESDEAREKVVREVLNLDKFETAYKKLSELKKTINNRIKEYRDILARTEGGAGGAGGRERVKKEIKDLEKAKDFTEELIEKVKKYKALAREAALSKIGELASEIFAEFTEGKYSEVVVRAEENKVRLFVVWEGKERPLTFLSGGERIALGLAFRLAMSLYLAGEISLLILDEPTPYFDEERRRKLITIMERYLKKIPQVILVSHDEELKDAADHVIRISLENGSSKVEVVS",
    "percent of molecules in the closed state [%]": 30
  }
]
